Test system: BT-549 breast
ASSAY_DETAILS: NCI-60 one-dose screen, 48 h
CONDITION: 10 µM unless noted
The panel holds about 83,000 compounds, 20% with a hit somewhere; the sample as a whole holds those more often. The source made the active and inactive calls. The calls were made as follows: active = growth percent below 10; inactive = the rest.
Thanks in advance; please answer with one of these: active, inactive

Exam item: Fill in: this test's call for `Cc1ccc(Nn2c(SCC(=O)Nc3nc(-c4ccccc4)cs3)nc(C)c2C)cc1` is ___
Marked response: inactive

Exam item: Fill in: this test's call for `N#Cc1c(-c2ccccc2)cc(-c2ccccc2)n(CCCC(=O)Nc2ccccc2N)c1=O` is ___
Marked response: inactive

Exam item: Fill in: this test's call for `COc1ccc(/C=C/C(=O)c2cccc(OCCCCOc3cccc(C(=O)/C=C/c4ccc(OC)c(OC)c4)c3)c2)cc1OC` is ___
Marked response: inactive

Exam item: Fill in: this test's call for `N#CSc1c[nH]c2cccc(/C=C/C(=O)/C=C(/C=C/c3cccc4[nH]cc(SC#N)c34)OB(F)F)c12` is ___
Marked response: active
